experiment: protein stability index of a GFP-peptide fusion (GPS, HEK-293T) (PSI 1-6); higher = more stable; conditions: treatment: MLN4924 1 uM, 8 h; c terminus: a fixed tail appended;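 also: 24-mer peptide tiles fused after GFP, lentivirally expressed, FACS-sorted into six equal bins by GFP/DsRed ratio, decoded by Illumina sequencing, PSI is the read-weighted mean bin number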
Short version: protein stability index at least 3 is satisfied, less is not satisfied.

Check out these entries, answers already filled in.
>  <query_sequence>
VVQGPDGRLELKPLLLRLPRICQR [FANCE]

>  <class>
not satisfied

$$$$
>  <query_sequence>
NRDEVLDNLLAFVCDIRPEIHENY [ATP6V1G1]

>  <class>
not satisfied

$$$$
>  <query_sequence>
KQNPSRQEVTKLQQQVKTNGAGVT [FBXO28]

>  <class>
satisfied

$$$$
>  <query_sequence>
QRFHEICSNLVKTRRRAVGWWKRL [ARL6IP1]

>  <class>
not satisfied

$$$$
>  <query_sequence>
HALATRASDYSKKSNVLKLKTADW [PSD2]

>  <class>
satisfied

$$$$

Given the entry NNPISEHFHPTVIGESMYGDFEEA [TENT5C] , answer whether its protein stability index meets or surpasses 3.
satisfied

Given the entry ELRFLLVYLHGDDHQDSDEFCRNT [FAF2] , answer whether its protein stability index meets or surpasses 3.
not satisfied

Given the entry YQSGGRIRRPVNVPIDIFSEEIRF [KCNA3] , answer whether its protein stability index meets or surpasses 3.
satisfied

Given the entry SWRWIMLILFAWGTLLFYIGGHLV [FUT8] , answer whether its protein stability index meets or surpasses 3.
not satisfied
